- Test system: Pseudomonas aeruginosa
- TEST METHOD NOTES: Antimicrobial activity against Pseudomonas aeruginosa ATCC 27853 assessed as […] growth inhibition after 24 hrs by two-fold serial broth dilution method
- Assay type: functional
- EXPERIMENTAL PARAMETERS: ATCC 27853, 24 h
PROPERTY MEASURED: MIC (µg/mL)

A. COc1ccc(/C=N/n2c(S)nnc2-c2cnccn2)cc1OC
B. NC[C@H]1O[C@H](O[C@H]2[C@H](O)[C@@H](O[C@H]3O[C@H](CO)[C@@H](O)[C@H](N)[C@H]3O)[C@H](N)C[C@@H]2N)[C@H](N)[C@@H](O)[C@@H]1O
C. COc1cc(OC)c(OC)cc1/C=N/n1c(S)nnc1-c1cnccn1
Task: # sort list by recorded MIC, greatest to least In plain terms: list the labels in the order you were asked to.
Output: A, C, B
(A: 50 µg/mL, C: 12.5 µg/mL, B: 1.56 µg/mL)

All figures here come from ChEMBL document CHEMBL3098096.
